- Test system: HSV-1
- METHOD NOTES: Antiviral activity, HSV-1 in Vero cells, plaque method
- Assay type: cell-based
- CONDITION: Human alphaherpesvirus 1, 20 hours, 90% inhibition of plaque formation
PROPERTY: EC90

Here are 3 compounds together with their reported answers.
Cc1c(NC(=O)OC(C)(C)C)ccc2nc(N[C@@H](CCc3ccccc3)C(=O)NCc3cccnc3)oc(=O)c12 | > 25 µM
Cc1c(NC(=O)OC(C)(C)C)ccc2nc(N3CCCC[C@H]3C(=O)NCCc3ccccn3)oc(=O)c12 | > 12.5 µM
Cc1c(NC(=O)C2CCC2)ccc2nc(NC(C)(C)C(=O)N(C)CCc3ccccn3)oc(=O)c12 | ≥ 12.5 µM

## Task Answer with reported EC90 of Cc1c(NC(=O)OC(C)(C)C)ccc2nc(N3CCC[C@H]3C(=O)N(C)CCc3ccccn3)oc(=O)c12
## Result > 12.5 µM

---

- System: Vero cells
- METHOD NOTES: Cytotoxicity, Vero cells, Alamar Blue
- Type: cell-based
- CONDITION: 25 μM, 20 hours
Catalogue of compounds with associated Cell viability (% of control)
# value in %; strip the unit string

Cc1c(NC(=O)OC(C)(C)C)ccc2nc(N3CCCC[C@H]3C(=O)NCc3ccccn3)oc(=O)c12 | 64.4

## Task Supply Cell viability (% of control) measured with Vero cells for Cc1c(NC(=O)OC(C)(C)C)ccc2nc(N3C[C@H](OCc4ccccc4)C[C@H]3C(=O)N(C)CCc3ccccn3)oc(=O)c12 .
## Result 76.5

## Task Report value: Cell viability (% of control), system: Vero cells, compound: Cc1c(NC(=O)c2sc3ccccc3c2Cl)ccc2nc(NC(C)(C)C(=O)N(C)CCc3ccccn3)oc(=O)c12
## Result 28.1

## Task Send back Vero cells Cell viability (% of control) of Cc1c(NC(=O)OC(C)(C)C)ccc2nc(N[C@@H](CC3CCCCC3)C(=O)N(C)CCc3ccccn3)oc(=O)c12 only.
## Result 36.7

## Task Find Cell viability (% of control) for Cc1cc(C(=O)Nc2ccc3nc(NC(C)(C)C(=O)N(C)CCc4ccccn4)oc(=O)c3c2C)c(C(F)(F)F)o1 on Vero cells and write it down.
## Result 99.4

## Task Determine reported Cell viability (% of control) for Cc1c(NC(=O)OC(C)(C)C)ccc2nc(N[C@@H](CC(C)C)C(=O)N(C)CCc3ccccn3)oc(=O)c12 ; test system: Vero cells.
## Result 80.1

---

- System: HSV-1
- METHOD NOTES: Antiviral activity, HSV-1 in Vero cells, plaque method
- Assay type: cell-based
- CONDITION: Human alphaherpesvirus 1, 20 hours, 90% inhibition of plaque formation
- Description: An Assay Method for Antiviral Activity These complementary assay methods examine the capacity of a compound to inhibit the generation of new viruses and to inhibit the toxicity of the compound against the host cell. Toxicity indirectly decreases the generation of viruses. Thus, it is important to simultaneously conduct both assays in order to directly compare the results. […] In this case, a substance to which 2% FBS-DMEM not comprising any test compound had been added was determined as a control. […]
PROPERTY: EC90

Some molecules with recorded EC90:
Cc1c(NC(=O)OC(C)(C)C)ccc2nc(N(C)[C@@H](C)C(=O)NCc3ccccn3)oc(=O)c12 [Compound No.71] | > 12.5 µM
Cc1c(NC(=O)OC(C)(C)C)ccc2nc(N3CCC[C@H]3C(=O)N(C)Cc3ccccn3)oc(=O)c12 [Compound No.90] | > 12.5 µM
Cc1c(NC(=O)OC(C)(C)C)ccc2nc(NCC(=O)N(C)CCc3ccccn3)oc(=O)c12 [Compound No.130] | > 20 µM
Cc1c(NC(=O)CCCNC(=O)c2ccc(C(F)(F)F)cc2)ccc2nc(N[C@@H](C)C(=O)N(C)CCc3ccccn3)oc(=O)c12 [Compound No.219] | > 12.5 µM
Cc1c(NC(=O)OC(C)(C)C)ccc2nc(N[C@H](C(=O)NCc3cccnc3)C(C)C)oc(=O)c12 [Compound No.24] | > 25 µM
Cc1c(NC(=O)CCNC(=O)OC(C)(C)C)ccc2nc(NC(C)(C)C(=O)N(C)CCc3ccccn3)oc(=O)c12 [Compound No.201] | > 12.5 µM
CC(=O)OC(C(=O)Nc1ccc2nc(NC(C)(C)C(=O)N(C)CCc3ccccn3)oc(=O)c2c1C)c1ccccc1 (stereo not shown) [Compound No.192] | > 12.5 µM
Cc1c(NC(=O)OC(C)(C)C)ccc2nc(N(C)[C@@H](C)C(=O)N(C)CCc3cccnc3)oc(=O)c12 [Compound No.77] | > 12.5 µM

## Task Look up EC90 of Cc1ccccc1C(=O)Nc1ccc2nc(NC(C)(C)C(=O)N(C)CCc3ccccn3)oc(=O)c2c1C [Compound No.156] and report it.
## Result > 12.5 µM

## Task Answer with the recorded EC90 for the molecule listed here: Cc1c(NC(=O)CCNC(=O)OCc2ccccc2)ccc2nc(NC(C)(C)C(=O)N(C)CCc3ccccn3)oc(=O)c12 [Compound No.202]
## Result > 12.5 µM

## Task # return recorded EC90 for input Cc1c(NC(=O)OC(C)(C)C)ccc2nc(NC3(C(=O)N(C)CCc4cccnc4)CC3)oc(=O)c12 [Compound No.125]
## Result > 12.5 µM

## Task Output EC90 of Cc1c(NC(=O)CCNC(=O)c2cccs2)ccc2nc(N[C@@H](C)C(=O)N(C)CCc3ccccn3)oc(=O)c12 [Compound No.215]
## Result > 12.5 µM

## Task Annotate the molecule Cc1c(NC(=O)c2cccc(C(Cl)Cl)c2)ccc2nc(NC(C)(C)C(=O)N(C)CCc3ccccn3)oc(=O)c12 [Compound No.183] with its measured EC90.
## Result > 12.5 µM

## Task Tell me measured EC90 for CCCCc1ccc(C(=O)NCCC(=O)Nc2ccc3nc(N[C@@H](C)C(=O)N(C)CCc4ccccn4)oc(=O)c3c2C)cc1 [Compound No.217] please.
## Result > 12.5 µM

## Task For the molecule Cc1c(NC(=O)OC(C)(C)C)ccc2nc(N(C)CC(=O)N(C)CCc3ccccn3)oc(=O)c12 [Compound No.131] , report EC90.
## Result > 20 µM

## Task Return reported EC90. Input molecule: Cc1c(NC(=O)OC(C)(C)C)ccc2nc(N3CCC[C@H]3C(=O)N(C)CCc3cccnc3)oc(=O)c12 [Compound No.92]
## Result > 12.5 µM
